Reported values: HepSE_liver function tests abnormal for Hepatotoxicity, one per item.
Write the value as a bare number.

// worked examples, HepSE_liver function tests abnormal included
{"compound": "CC1=C(/C=C/C(C)=C/C=C/C(C)=C/C(=O)O)C(C)(C)CCC1", "target system": "Hepatotoxicity", "HepSE_liver function tests abnormal": 0}
{"compound": "CCOC(=O)C1=C(C)NC(C)=C(C(=O)OC)C1c1cccc(Cl)c1Cl (centres undefined)", "target system": "Hepatotoxicity", "HepSE_liver function tests abnormal": 0}
{"compound": "NC(=O)c1cnccn1 [PYRAZINAMIDE]", "target system": "Hepatotoxicity", "HepSE_liver function tests abnormal": 0}
{"compound": "C[C@]12COC(=O)C[C@@H]1CC[C@@H]1[C@@H]2CC[C@@]2(C)[C@H]1CC[C@]2(C)O", "target system": "Hepatotoxicity", "HepSE_liver function tests abnormal": 0}
{"compound": "CNCC[C@@H](Oc1ccccc1C)c1ccccc1", "target system": "Hepatotoxicity", "HepSE_liver function tests abnormal": 1}
{"compound": "CC(=O)O[C@H]1C[C@@H]2CC[C@@H]3[C@H](CC[C@@]4(C)[C@H]3C[C@H]([N+]3(C)CCCCC3)[C@@H]4OC(C)=O)[C@@]2(C)C[C@@H]1N1CCCCC1", "target system": "Hepatotoxicity", "HepSE_liver function tests abnormal": 0}

// query Name the reported HepSE_liver function tests abnormal value associated with the compound CC(C)NCC(O)COc1cccc2[nH]ccc12 (centres undefined)
// result 0

// query Name the reported HepSE_liver function tests abnormal value associated with the compound Clc1ccc(COC(Cn2ccnc2)c2ccc(Cl)cc2Cl)cc1 (centres undefined)
// result 0

// query Name the reported HepSE_liver function tests abnormal value associated with the compound NS(=O)(=O)c1cc2c(cc1C(F)(F)F)NC(Cc1ccccc1)NS2(=O)=O (centres undefined) [BENDROFLUMETHIAZIDE]
// result 0
